assay: qHTS assay to identify small molecule agonists of the AP-1 signaling pathway (AID 1159526); details: ME-180 (cervical carcinoma) AP-1-bla reporter, beta-lactamase FRET ratio, 5 h; series mostly up to 76.8 µM
Inconclusive results are not listed. The source made the active and inactive calls. Calls follow the shape of the full dose curve.
quantity: outcome

Use these answered entries as a reference point.
compound: O=C(NS(=O)(=O)/C=C/c1cccs1)c1ccc(F)cc1Br
outcome: inactive
//
compound: CC(=O)c1ccc2c(c1)[C@H](NC(=O)c1ccc(F)cc1)[C@@H](O)C(C)(C)O2
outcome: inactive
//
compound: CCOC(=O)C1=C(C)NC(C)=C(C(=O)OC)C1c1cccc([N+](=O)[O-])c1 (configuration not stated)
outcome: inactive
//
compound: CC(=O)/C(C)=C/C1C(C)=CCCC1(C)C (configuration not stated)
outcome: inactive
//
compound: c1ccc(-c2nc[nH]c2-c2ccccc2)cc1
outcome: inactive

compound CCCCCCc1ccc(N)cc1 , outcome observed: inactive

====

target: Cytochrome P450 3A4 (Homo sapiens) (UniProt P08684); experiment: Cytochrome P450 Family 3 Subfamily A Member 4 (CYP3A4) small molecule antagonists: luciferase reporter qHTS assay (AID 1671201); details: P450-Glo CYP3A4 enzyme, luciferin luminescence, 1 h; series mostly up to 115 µM; also: nearly all actives have a fitted effect of over 50% in size
Sequence (P08684 whole entry, looked up): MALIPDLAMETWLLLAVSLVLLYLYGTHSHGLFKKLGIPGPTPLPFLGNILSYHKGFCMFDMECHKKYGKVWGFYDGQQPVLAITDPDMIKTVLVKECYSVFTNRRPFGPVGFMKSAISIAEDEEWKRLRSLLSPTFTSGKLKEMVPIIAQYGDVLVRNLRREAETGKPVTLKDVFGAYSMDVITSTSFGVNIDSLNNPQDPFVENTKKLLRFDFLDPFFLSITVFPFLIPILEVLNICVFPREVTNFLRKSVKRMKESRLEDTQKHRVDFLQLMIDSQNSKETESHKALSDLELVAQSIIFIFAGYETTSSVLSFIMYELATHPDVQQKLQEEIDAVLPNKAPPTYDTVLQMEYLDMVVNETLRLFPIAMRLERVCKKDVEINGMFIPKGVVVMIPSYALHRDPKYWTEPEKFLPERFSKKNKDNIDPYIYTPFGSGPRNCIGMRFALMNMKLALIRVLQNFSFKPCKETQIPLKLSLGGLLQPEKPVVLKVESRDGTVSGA
Results filed as inconclusive are left out. Active and inactive are the calls of the source. Calls follow the shape of the dose curve; as a rule, active = well fitted inhibition curve with a large enough effect in the repeat runs; inconclusive = weak or mixed curves; inactive = no such curve, though single readings can be large or run the other way.
Tick one outcome: T for active, F for inactive

compound: CC(=O)OC/C=C/c1ccccc1
assay.system: Cytochrome P450 3A4 (Homo sapiens) (UniProt P08684)
assigned.category: F
--
compound: CC[C@H](C)[C@H](N)C(=O)O
assay.system: Cytochrome P450 3A4 (Homo sapiens) (UniProt P08684)
assigned.category: F

Enquiry: I would be grateful if you could indicate the recorded call for CC(C)c1cccc(C(C)C)c1NC(=O)NS(=O)(=O)c1cc(C(C)(C)O)co1 .
Return: F

Enquiry: I would be grateful if you could indicate the recorded call for C=CC(=O)OCCOC(=O)CCC(=O)O .
Return: T

Enquiry: I would be grateful if you could indicate the recorded call for CCCC(=O)OCC .
Return: F

Enquiry: I would be grateful if you could indicate the recorded call for O=S(=O)(O)c1ccc(O)c2ncccc12 .
Return: F

Enquiry: I would be grateful if you could indicate the recorded call for CC(C)NCC(O)c1cc(O)cc(O)c1 (stereo unspecified) .
Return: F

Enquiry: I would be grateful if you could indicate the recorded call for Cn1sccc1=O .
Return: F

Enquiry: I would be grateful if you could indicate the recorded call for CCCCCCCCC(CO)CCCCCC (stereo unspecified) .
Return: F

Enquiry: I would be grateful if you could indicate the recorded call for Oc1ccc(Cc2ccccc2)cc1 .
Return: F

Enquiry: I would be grateful if you could indicate the recorded call for Cc1cc(O)ccc1N .
Return: T

Enquiry: I would be grateful if you could indicate the recorded call for CC(=O)OCCc1ccccc1 .
Return: F

Enquiry: I would be grateful if you could indicate the recorded call for CCCCOc1cc(C(=O)OCCN(CC)CC)ccc1N .
Return: F

Enquiry: I would be grateful if you could indicate the recorded call for CC/C(=C\C(=N/O)C(N)=O)C(C)[N+](=O)[O-] (stereo unspecified) .
Return: F

Enquiry: I would be grateful if you could indicate the recorded call for COCCO .
Return: F

Enquiry: I would be grateful if you could indicate the recorded call for O=C(O)/C=C/c1cnc[nH]1 .
Return: F

Enquiry: I would be grateful if you could indicate the recorded call for CCc1nn(C2CCCCC2)c2cc(C3(C#N)CCC(C(=O)O)CC3)ccc12 (stereo unspecified) .
Return: F
